tested on: corn (Zea mays); experiment: Test B pre-/postemergence plant response; assay type: in vivo; settings: Postemergence, 250 g ai/ha; scale 0 to 100 (0 no effect, 100 complete control); 13 to 15 days
The entries below are paired with their reported Plant response rating, Corn.
Respond with the number and no other words.

Here are 3 molecules together with their reported answers.
{"columns": ["smilesRecord", "observationType", "recordedResult"],
 "data": [
  ["CCCCn1c(C2CC2)ncc(C(=O)C2=C(O)CCCC2=O)c1=O", "Plant response rating, Corn", 60],
  ["O=C1CCCC(O)=C1C(=O)c1cnc(-c2ccsc2)n(C2CCOCC2)c1=O", "Plant response rating, Corn", 65],
  ["O=C1CCCC(O)=C1C(=O)c1cnc(C2CC2)n(C2CCCCC2)c1=O", "Plant response rating, Corn", 60]
]}

# Plant response rating, Corn lookup, item CCCn1c(-c2cc(Cl)cc(Cl)c2)ncc(C(=O)C2=C(O)CCCC2=O)c1=O
85

====

Below: a set of entries, each annotated with reported Plant response rating, Barley.
test system: winter barley (Hordeum vulgare); experiment: Test B postemergence plant response; type: in vivo; conditions: Postemergence, 250 g ai/ha; scale 0 to 100 (0 no effect, 100 complete control)
API doc: respond with a numeric literal and nothing else, no unit.

Example compounds with recorded Plant response rating, Barley:
{"columns": ["compound", "observationType", "recordedResult"],
 "data": [
  ["CC(C)Cc1ncc(C(=O)C2=C(O)CCCC2=O)c(=O)n1-c1ccccc1", "Plant response rating, Barley", 30],
  ["Cc1ccc(Cl)cc1-n1c(-c2ccccc2)ncc(C(=O)C2=C(O)CCCC2=O)c1=O", "Plant response rating, Barley", 25]
]}

Given O=C1CCCC(O)=C1C(=O)c1cnc(C2CC2)n(-c2ccccc2)c1=O , state its recorded Plant response rating, Barley.
5

What does the data say about its Plant response rating, Barley? Entry: COCCOCCn1c(-c2ccccc2)ncc(C(=O)C2=C(O)CCCC2=O)c1=O
40

I would be grateful if you could share the reported Plant response rating, Barley for O=C1CCCC(O)=C1C(=O)c1cnc(-c2ccsc2)n(CC2CCCO2)c1=O (stereo not shown) .
15

May I ask what Plant response rating, Barley has been recorded for Cc1ccc(F)c(-n2c(-c3ccccc3)ncc(C(=O)C3=C(O)CCCC3=O)c2=O)c1 ?
50

What measured Plant response rating, Barley goes with O=C1CCCC(O)=C1C(=O)c1cnc(-c2cccs2)n(-c2ccccc2)c1=O ?
0

====

Listing of entries alongside the reported Plant response rating, Ryegrass, Italian.
Test system: Italian ryegrass (Lolium multiflorum)
Assay: Test B pre-/postemergence plant response
Format: in vivo
Conditions: Preemergence, 125 g ai/ha; scale 0 to 100, 0 no effect, 100 complete control
Text: […] Treated plants and controls were maintained in a greenhouse for 13 to 15 days, after which time all treated plants were visually evaluated and compared to controls. […]
Provide a numeric answer; units are not to be included.

// solved cases for Plant response rating, Ryegrass, Italian follow
{"columns": ["compound", "Plant response rating, Ryegrass, Italian"],
 "data": [
  ["CCCCc1ncc(C(=O)C2=C(O)CCCC2=O)c(=O)n1-c1ccccc1C [Compound 62]", 0],
  ["Cc1ccc(Cl)cc1-n1c(-c2ccccc2)ncc(C(=O)C2=C(O)CCCC2=O)c1=O [Compound 52]", 0],
  ["CCCCn1c(C2CC2)ncc(C(=O)C2=C(O)CCCC2=O)c1=O [Compound 193]", 25]
]}

Field: Plant response rating, Ryegrass, Italian (Italian ryegrass (Lolium multiflorum)). Entry: O=C1CCCC(O)=C1C(=O)c1cnc(-c2cccs2)n(-c2ccccc2)c1=O [Compound 66]
0

====

tested on: downy bromegrass (Bromus tectorum); assay: Test B pre-/postemergence plant response; format: in vivo; conditions: 62 g ai/ha, postemergence; 0 is no effect, 100 is complete control; 13 to 15 days
observationType: Bromegrass, Downy plant response rating (0 to 100 scale)
Keep the answer to the number alone.

{"columns": ["compound", "recordedResult"],
 "data": [
  ["O=C1CCCC(O)=C1C(=O)c1cnc(-c2cccs2)n(CC2CCCO2)c1=O (stereo not drawn)", 0],
  ["O=C1CCCC(O)=C1C(=O)c1cnc(-c2ccsc2)n(CC2CCCO2)c1=O (stereo not drawn)", 5],
  ["CCCn1c(-c2cccc(F)c2)ncc(C(=O)C2=C(O)CCCC2=O)c1=O", 10],
  ["O=C1CCCC(O)=C1C(=O)c1cnc(-c2ccsc2)n(C2CCCCC2)c1=O", 5],
  ["CCCn1c(-c2ccsc2)ncc(C(=O)C2=C(O)CCCC2=O)c1=O", 0],
  ["CCOCCn1c(-c2ccccc2)ncc(C(=O)C2=C(O)CCCC2=O)c1=O", 0],
  ["O=C1CCCC(O)=C1C(=O)c1cnc(-c2cccnc2)n(-c2ccccc2)c1=O", 60],
  ["CC(C)Cc1ncc(C(=O)C2=C(O)CCCC2=O)c(=O)n1-c1ccccc1", 5]
]}

// switching to the query compound
Can you look up the measured Bromegrass, Downy plant response rating (0 to 100 scale) of COCCCn1c(-c2ccccc2)ncc(C(=O)C2=C(O)CCCC2=O)c1=O for me?
5

====

test system: blackgrass (Alopecurus myosuroides); assay: Test B pre-/postemergence plant response; format: in vivo; conditions: 250 g ai/ha, Preemergence, 0 to 100 scale
observationType: Plant response rating, Blackgrass

Record excerpt, results attached:
{"columns": ["smilesRecord", "targetDesc", "recordedResult"],
 "data": [
  ["Cc1cc(F)ccc1-n1c(-c2ccccc2)ncc(C(=O)C2=C(O)CCCC2=O)c1=O", "blackgrass (Alopecurus myosuroides)", 5],
  ["Cc1ccc(F)c(-n2c(-c3ccccc3)ncc(C(=O)C3=C(O)CCCC3=O)c2=O)c1", "blackgrass (Alopecurus myosuroides)", 20],
  ["CCCc1ncc(C(=O)C2=C(O)CCCC2=O)c(=O)n1CCC", "blackgrass (Alopecurus myosuroides)", 5],
  ["CCn1c(-c2ccccc2)ncc(C(=O)C2=C(O)CCCC2=O)c1=O", "blackgrass (Alopecurus myosuroides)", 0],
  ["Cc1cccc(-n2c(-c3ccccc3)ncc(C(=O)C3=C(O)CCCC3=O)c2=O)c1C", "blackgrass (Alopecurus myosuroides)", 30]
]}

// below: Plant response rating, Blackgrass requested for another compound
Given O=C1CCCC(O)=C1C(=O)c1cnc(-c2cccs2)n(-c2ccccc2)c1=O , state its recorded Plant response rating, Blackgrass.
5

====

tested on: morningglory (Ipomoea spp.); experiment: Test A pre-/postemergence plant response; type: in vivo; conditions: Postemergence, 125 g ai/ha; visual injury, 0 to 100 scale (0 no effect, 100 complete control), approx. ten days
observationType: Plant response rating, Morningglory
Give only the figure.

Consider the reported Plant response rating, Morningglory for these molecules:
{"columns": ["molecule", "Plant response rating, Morningglory"],
 "data": [
  ["O=C(C1=C(O)C2CCC(C2)C1=O)c1cnc(-c2ccccc2)n(CC2CCCO2)c1=O (centres unmarked) [Compound 250]", 100],
  ["C#Cc1ccc(-c2ncc(C(=O)C3=C(O)C4CCC(C4)C3=O)c(=O)n2C2CCCCC2)cc1 (centres unmarked) [Compound 254]", 20],
  ["O=C(C1=C(O)C2CCC(C2)C1=O)c1cnc(-c2ccccc2)n(C2CCCCCCCCCCC2)c1=O (centres unmarked) [Compound 247]", 100],
  ["COCCCn1c(-c2cc(F)cc(F)c2)ncc(C(=O)C2=C(O)C3CCC(C3)C2=O)c1=O (centres unmarked) [Compound 244]", 100]
]}

// query Plant response rating, Morningglory value for entry O=C(C1=C(O)C2CCC(C2)C1=O)c1cnc(-c2cc(F)cc(F)c2)n(-c2ccccc2)c1=O (centres unmarked) [Compound 246]
90

====

// Plant response rating, Ryegrass, Italian lookup, one value per entry
system: Italian ryegrass (Lolium multiflorum); assay: Test B pre-/postemergence plant response; type: in vivo; conditions: 31 g ai/ha, postemergence; scale 0 to 100, 0 is no effect, 100 is complete control
Just the number, please, no unit after it.

# count of solved cases: 5
{"columns": ["compound", "recordedResult"],
 "data": [
  ["CC(C)Cc1ncc(C(=O)C2=C(O)CCCC2=O)c(=O)n1-c1ccccc1 [Compound 68]", 5],
  ["CCn1c(-c2ccccc2)ncc(C(=O)C2=C(O)CCCC2=O)c1=O [Compound 49]", 0],
  ["CCCCn1c(CCC)ncc(C(=O)C2=C(O)CCCC2=O)c1=O [Compound 75]", 0],
  ["CCCc1ncc(C(=O)C2=C(O)CCCC2=O)c(=O)n1CCC [Compound 72]", 0],
  ["O=C1CCCC(O)=C1C(=O)c1cnc(C2CC2)n(-c2ccccc2)c1=O [Compound 87]", 5]
]}

# input for lookup
Please give the measured Plant response rating, Ryegrass, Italian for this compound: Cc1ccc(Cl)cc1-n1c(-c2ccccc2)ncc(C(=O)C2=C(O)CCCC2=O)c1=O [Compound 52]
40

====

system: chickweed (Stellaria media); experiment: Test B postemergence plant response; type: in vivo; details: Postemergence, 62 g ai/ha; scale 0 (no effect) to 100 (complete control); 13 to 15 days
Reported Plant response rating, Chickweed values follow for various molecules
Please give only the number in your answer, with no unit.

Study these solved cases before continuing.
{"columns": ["molecule", "recordedResult"],
 "data": [
  ["Cc1ccc(F)c(-n2c(-c3ccccc3)ncc(C(=O)C3=C(O)CCCC3=O)c2=O)c1 [Compound 51]", 80],
  ["CCCn1c(-c2ccccc2)ncc(C(=O)C2=C(O)CCCC2=O)c1=O [Compound 50]", 80],
  ["Cc1ccc(-n2c(-c3cccc(Cl)c3)ncc(C(=O)C3=C(O)CCCC3=O)c2=O)cc1 [Compound 39]", 100]
]}

Could you now look at the following molecule, please?
Request: Plant response rating, Chickweed, test system chickweed (Stellaria media), entry CCn1c(-c2ccccc2)ncc(C(=O)C2=C(O)CCCC2=O)c1=O [Compound 49]
75

Source: patent US8952024B2
